Provenance of the data: patent US9822106B2

Target: LTA4-h (Homo sapiens, UniProt P09960)
Sequence (P09960 1-611): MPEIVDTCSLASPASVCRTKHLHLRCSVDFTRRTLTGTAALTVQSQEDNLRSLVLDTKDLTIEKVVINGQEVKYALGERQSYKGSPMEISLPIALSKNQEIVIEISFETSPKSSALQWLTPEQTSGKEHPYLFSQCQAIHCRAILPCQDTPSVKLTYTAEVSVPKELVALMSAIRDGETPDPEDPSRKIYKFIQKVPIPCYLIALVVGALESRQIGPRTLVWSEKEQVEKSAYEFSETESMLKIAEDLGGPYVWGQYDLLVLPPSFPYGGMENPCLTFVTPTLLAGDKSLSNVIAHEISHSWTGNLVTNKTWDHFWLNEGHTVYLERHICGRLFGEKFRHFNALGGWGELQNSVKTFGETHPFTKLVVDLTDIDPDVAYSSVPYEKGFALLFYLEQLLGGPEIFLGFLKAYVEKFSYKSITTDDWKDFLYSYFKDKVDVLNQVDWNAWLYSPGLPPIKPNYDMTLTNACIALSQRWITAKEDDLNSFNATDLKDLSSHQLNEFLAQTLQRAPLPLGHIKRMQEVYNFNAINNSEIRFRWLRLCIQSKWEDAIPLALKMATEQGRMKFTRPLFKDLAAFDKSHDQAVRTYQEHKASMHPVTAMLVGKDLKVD
Test: peptidase (aminopeptidase) assay
Type: biochemical
Hi! Could you tag entries with IC50 below 80 nM as Y, and those at or above as N? Much appreciated.

Below, 2 compounds whose answers are already recorded.
Lookup: Field: below-cutoff. Rule: recorded IC50 strictly less than 80 nM. Subject: O=C(O)c1cccc(Oc2ncccc2CNCc2ccc(Oc3ccc(-c4ncco4)cc3)cc2)c1 [Compound 13]
Found: Y

Lookup: Field: below-cutoff. Rule: recorded IC50 strictly less than 80 nM. Subject: CN(Cc1ccc(Oc2ccc(Cl)cc2)cc1)Cc1ccc(Oc2ccc(C(=O)O)cc2)nc1 [Compound 4]
Found: N

---
Lookup: Field: below-cutoff. Rule: recorded IC50 strictly less than 80 nM. Subject: O=C(O)[C@H]1CCCN(c2ccc(CNCc3ccc(Oc4cnc5ccccc5n4)cc3)cn2)C1 [Compound 37]
Found: Y

Lookup: Field: below-cutoff. Rule: recorded IC50 strictly less than 80 nM. Subject: O=C(O)CCNc1ccc(CNCc2ccc(Oc3ccc(Cl)cc3)cc2)cn1 [Compound 21]
Found: Y

Lookup: Field: below-cutoff. Rule: recorded IC50 strictly less than 80 nM. Subject: O=C(O)C1CCCN(c2ccc(CNCc3ccc(Oc4nc5ccccc5s4)cc3)cn2)C1 (centres unmarked) [Compound 29]
Found: Y

Lookup: Field: below-cutoff. Rule: recorded IC50 strictly less than 80 nM. Subject: CN(Cc1ccc(C(=O)O)cc1)c1ccc(CNCc2ccc(Oc3ccc(Cl)cc3)cc2)cn1 [Compound 1]
Found: N

Lookup: Field: below-cutoff. Rule: recorded IC50 strictly less than 80 nM. Subject: O=C(O)c1ccc(Oc2ncccc2CNCc2ccc(Oc3ccc(Cl)cc3)cc2)cc1 [Compound 3]
Found: Y
